target: Long-chain fatty acid transport protein 1 (Homo sapiens); assay: Inhibition of human recombinant FATP1 acyl-coA synthetase activity using [14C]oleic acid as substrate
Sequence (Q6PCB7 whole entry): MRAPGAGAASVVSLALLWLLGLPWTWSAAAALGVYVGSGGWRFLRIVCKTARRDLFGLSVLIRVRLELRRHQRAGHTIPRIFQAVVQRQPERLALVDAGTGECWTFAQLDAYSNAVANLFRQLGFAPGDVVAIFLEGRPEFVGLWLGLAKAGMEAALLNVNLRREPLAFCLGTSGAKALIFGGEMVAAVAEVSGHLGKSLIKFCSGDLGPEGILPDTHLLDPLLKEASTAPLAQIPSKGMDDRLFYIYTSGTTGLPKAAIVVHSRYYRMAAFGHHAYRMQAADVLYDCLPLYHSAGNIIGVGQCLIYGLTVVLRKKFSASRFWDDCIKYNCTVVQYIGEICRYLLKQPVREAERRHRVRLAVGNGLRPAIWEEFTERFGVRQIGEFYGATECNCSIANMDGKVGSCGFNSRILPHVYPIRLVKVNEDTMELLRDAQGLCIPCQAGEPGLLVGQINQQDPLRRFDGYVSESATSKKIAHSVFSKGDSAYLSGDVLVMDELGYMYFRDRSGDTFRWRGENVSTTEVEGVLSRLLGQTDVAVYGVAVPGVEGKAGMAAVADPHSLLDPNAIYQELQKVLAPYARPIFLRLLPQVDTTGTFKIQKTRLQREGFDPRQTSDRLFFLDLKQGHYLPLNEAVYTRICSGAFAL
Task for the reader: assign each of the following compounds its reported IC50.

API: value(readout= IC50, system= Long-chain fatty acid transport protein 1 (Homo sapiens), query= CCC(=O)c1ccc2oc(CSc3nnc(CNc4ccccc4)n3CC)nc2c1 ) 190 nM

API: value(readout= IC50, system= Long-chain fatty acid transport protein 1 (Homo sapiens), query= CCn1nnc(-c2ccc(NC(=O)CSc3nnc(CNc4ccccc4)n3CC)cc2)n1 ) > 1000 nM

API: value(readout= IC50, system= Long-chain fatty acid transport protein 1 (Homo sapiens), query= CCNC(=O)c1ccc(NC(=O)CSc2nnc(CNc3ccccc3)n2CC)cc1 ) > 1000 nM

API: value(readout= IC50, system= Long-chain fatty acid transport protein 1 (Homo sapiens), query= CCn1c(CNc2ccccc2)nnc1SCc1nc2cc(OC)ccc2o1 ) > 1000 nM

API: value(readout= IC50, system= Long-chain fatty acid transport protein 1 (Homo sapiens), query= CCC(=O)c1ccc(N(CC)C(=O)CSc2nnc(CNc3ccccc3)n2CC)cc1 ) > 1000 nM
